Recorded IC50 by entry
Target: AKT (Homo sapiens, UniProt P31749)
Sequence (P31749 whole entry): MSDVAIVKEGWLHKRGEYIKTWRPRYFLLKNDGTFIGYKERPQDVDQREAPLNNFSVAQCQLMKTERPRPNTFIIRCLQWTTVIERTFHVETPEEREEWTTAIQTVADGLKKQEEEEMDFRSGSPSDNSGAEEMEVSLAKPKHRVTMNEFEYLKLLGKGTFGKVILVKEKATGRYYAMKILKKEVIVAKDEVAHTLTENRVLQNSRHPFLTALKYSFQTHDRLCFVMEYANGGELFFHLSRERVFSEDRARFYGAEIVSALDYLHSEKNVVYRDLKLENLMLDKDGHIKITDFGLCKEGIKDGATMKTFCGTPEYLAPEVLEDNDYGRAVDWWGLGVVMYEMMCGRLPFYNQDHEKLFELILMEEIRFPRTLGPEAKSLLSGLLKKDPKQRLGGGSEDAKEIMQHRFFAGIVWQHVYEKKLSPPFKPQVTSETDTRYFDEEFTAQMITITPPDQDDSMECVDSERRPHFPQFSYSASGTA
Test: RBC HotSpot kinase assay (33P-ATP, P81 filter-binding), AKT
Format: biochemical
Details: Table 28, biochemical kinase assay; read-out: AKT IC50
Value type: IC50 (nM)

[[record]]
mol = "Fc1cccc(CNCc2ccc(-c3ccnc4[nH]ccc34)cc2)c1"
unit_symbol = "nM"
censoring_sign = "="
result_number = 859

[[record]]
mol = "Cc1cc(-c2ccnc3[nH]ccc23)cc(F)c1[C@@]1(O)[C@H](C)CN(C2CCS(=O)(=O)CC2)C[C@@H]1C"
unit_symbol = "nM"
censoring_sign = "="
result_number = 1090

[[record]]
mol = "CN(C)C(C)(C)c1ccc(-c2ccnc3[nH]cc(F)c23)cc1"
unit_symbol = "nM"
censoring_sign = "="
result_number = 349

[[record]]
mol = "O=C1NCc2ccc(-c3ccnc4[nH]ccc34)cc21"
unit_symbol = "nM"
censoring_sign = ">"
result_number = 10000


----------
Target: LATS1 (Homo sapiens)
Assay: RBC HotSpot kinase assay (33P-ATP, P81 filter-binding), LATS1
Format: biochemical
Conditions: Table 28, biochemical kinase assay; read-out: LATS1 IC50
pIC50: −log10 of the molar value.
Recorded pIC50 by entry
Value type: pIC50

[[record]]
mol = "Cc1cccc(-c2c[nH]c3nccc(-c4ccc(CN)cc4)c23)c1"
value_type = "pIC50"
result_number = 7.77

[[record]]
mol = "COC(=O)c1c[nH]c2nccc(-c3ccc(CN)c(Cl)c3)c12"
value_type = "pIC50"
result_number = 7.96

[[record]]
mol = "NCc1ccc(-c2ccnc3[nH]ccc23)cc1-c1ccccc1"
value_type = "pIC50"
result_number = 7.82


----------
Biological target: LATS1 (Homo sapiens, UniProt O95835)
Sequence (O95835 whole entry): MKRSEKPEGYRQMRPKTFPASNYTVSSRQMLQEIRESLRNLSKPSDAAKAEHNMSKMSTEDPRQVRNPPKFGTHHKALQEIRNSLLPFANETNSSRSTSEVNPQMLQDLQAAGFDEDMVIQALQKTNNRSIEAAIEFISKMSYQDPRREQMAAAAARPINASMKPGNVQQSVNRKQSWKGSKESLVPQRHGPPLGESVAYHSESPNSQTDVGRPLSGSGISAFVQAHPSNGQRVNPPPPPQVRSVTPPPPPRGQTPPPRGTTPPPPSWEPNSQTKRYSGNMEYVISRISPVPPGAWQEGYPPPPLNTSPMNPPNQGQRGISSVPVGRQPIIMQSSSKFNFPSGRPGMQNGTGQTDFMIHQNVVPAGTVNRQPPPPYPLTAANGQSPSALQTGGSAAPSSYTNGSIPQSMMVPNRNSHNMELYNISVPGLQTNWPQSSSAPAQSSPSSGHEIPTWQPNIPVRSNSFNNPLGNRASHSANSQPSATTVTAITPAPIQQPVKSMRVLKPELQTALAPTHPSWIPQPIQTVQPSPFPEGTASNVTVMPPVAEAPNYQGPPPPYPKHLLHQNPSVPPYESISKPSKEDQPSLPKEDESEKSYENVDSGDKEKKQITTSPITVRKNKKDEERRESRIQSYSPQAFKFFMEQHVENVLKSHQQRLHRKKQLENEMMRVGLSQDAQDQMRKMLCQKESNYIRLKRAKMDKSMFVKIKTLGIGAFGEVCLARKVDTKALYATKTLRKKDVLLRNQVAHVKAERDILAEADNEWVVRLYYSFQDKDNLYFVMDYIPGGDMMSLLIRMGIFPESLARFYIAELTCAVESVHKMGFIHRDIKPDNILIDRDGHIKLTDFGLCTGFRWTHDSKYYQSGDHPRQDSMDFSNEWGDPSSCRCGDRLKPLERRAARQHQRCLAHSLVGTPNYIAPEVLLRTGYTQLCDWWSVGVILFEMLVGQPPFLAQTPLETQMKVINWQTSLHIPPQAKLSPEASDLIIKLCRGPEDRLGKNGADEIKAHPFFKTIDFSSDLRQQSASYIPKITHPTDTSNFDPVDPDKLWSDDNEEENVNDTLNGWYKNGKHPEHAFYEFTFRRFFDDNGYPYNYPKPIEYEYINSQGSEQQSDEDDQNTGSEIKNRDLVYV
Test: RBC HotSpot kinase assay (33P-ATP, P81 filter-binding), LATS1
Type: biochemical
Settings: Table 28, biochemical kinase assay; read-out: LATS1 IC50
Recorded IC50 by entry
Value type: IC50 (nM)

[[record]]
compound = "C[C@@H]1CN(C(=O)[C@@H](C)N)C[C@H](C)C1(O)c1c(F)cc(-c2ccnc3[nH]cc(F)c23)cc1F (stereo partly shown)"
censoring_sign = "="
result_number = 20.3

[[record]]
compound = "Cc1cc(-c2ccnc3[nH]cc(F)c23)ccc1[C@@]1(O)[C@H](C)CN(C(C)C)C[C@@H]1C"
censoring_sign = "="
result_number = 1.3

[[record]]
compound = "OC1(c2ccc(-c3ccnc4[nH]cc(Br)c34)cc2Cl)C[C@H]2CC[C@@H](C1)N2 (stereo partly shown)"
censoring_sign = "="
result_number = 5.3

[[record]]
compound = "CC(C)c1c[nH]c2nccc(-c3ccc(CN)c(-c4ccccc4)c3)c12"
censoring_sign = "="
result_number = 236

[[record]]
compound = "OC1(c2ccc(-c3ccnc4[nH]cc(F)c34)cc2Cl)C2CNCC1C2 (stereo not shown)"
censoring_sign = "="
result_number = 82

[[record]]
compound = "COCCNc1cc(-c2ccnc3[nH]ccc23)ccc1CN"
censoring_sign = "="
result_number = 24

[[record]]
compound = "C[C@@H]1CN(Cc2ccccc2)C[C@H](C)[C@@]1(O)c1c(F)cc(-c2ccnc3[nH]cc(F)c23)cc1F"
censoring_sign = "="
result_number = 10.6

[[record]]
compound = "COC(=O)c1c[nH]c2nccc(-c3ccc(C4(O)C[C@H]5CC[C@@H](C4)N5)cc3)c12 (stereo partly shown)"
censoring_sign = "="
result_number = 12.4

[[record]]
compound = "CNCC(=O)N1C[C@@H](C)C(O)(c2c(F)cc(-c3ccnc4[nH]cc(F)c34)cc2F)[C@@H](C)C1 (stereo partly shown)"
censoring_sign = "="
result_number = 25

[[record]]
compound = "CCN(CC)c1cc(-c2ccnc3[nH]ccc23)ccc1CNC(C)=O"
censoring_sign = "="
result_number = 772

[[record]]
compound = "NCc1ccc(-c2ccnc3[nH]ccc23)c(C(F)(F)F)c1"
censoring_sign = "="
result_number = 5050

[[record]]
compound = "c1cc(-c2ccc(C3CC4CCC(C3)N4)cc2)c2cc[nH]c2n1 (stereo not shown)"
censoring_sign = "="
result_number = 25

[[record]]
compound = "O=C([C@H]1CCCN1)N1CCC(c2ccc(-c3ccnc4[nH]cc(F)c34)cc2Cl)CC1"
censoring_sign = "="
result_number = 32.1

[[record]]
compound = "CCc1cc(-c2ccnc3[nH]cc(F)c23)ccc1[C@@]1(O)[C@H](C)CNC[C@@H]1C"
censoring_sign = "="
result_number = 8.7

[[record]]
compound = "C[C@@H]1CNC[C@H](C)[C@@]1(O)c1ccc(-c2ccnc3[nH]cc(F)c23)cc1Cl"
censoring_sign = "="
result_number = 11.3

[[record]]
compound = "NCc1ccc(-c2ccnc3[nH]ccc23)cc1C(F)(F)F"
censoring_sign = "="
result_number = 10

[[record]]
compound = "O=C1NCc2ccc(-c3ccnc4[nH]ccc34)cc21"
censoring_sign = "="
result_number = 110

[[record]]
compound = "C[Si](C)(C)CCS(=O)(=O)N1CCC(c2ccc(-c3ccnc4[nH]cc(F)c34)cc2Cl)CC1"
censoring_sign = ">"
result_number = 10000

[[record]]
compound = "CC1(c2ccc(-c3ccnc4[nH]ccc34)cc2)CCNCC1"
censoring_sign = "="
result_number = 59

[[record]]
compound = "N#Cc1cc(C2CCNCC2)ccc1-c1ccnc2[nH]ccc12"
censoring_sign = "="
result_number = 4930

[[record]]
compound = "c1cc(-c2ccc(C3CCCCN3)cc2)c2cc[nH]c2n1 (stereo not shown)"
censoring_sign = "="
result_number = 20

[[record]]
compound = "OC1(c2ccc(-c3ccnc4[nH]cc(F)c34)cc2Cl)CCNCC1"
censoring_sign = "="
result_number = 11.4

[[record]]
compound = "CC1(c2ccc(-c3ccnc4[nH]cc(F)c34)cc2Cl)CCNCC1"
censoring_sign = "="
result_number = 34

[[record]]
compound = "OC1(c2ccc(-c3ccnc4[nH]cc(F)c34)cc2Cl)CNC1"
censoring_sign = "="
result_number = 16

[[record]]
compound = "C[C@@H]1CNC[C@H](C)[C@@]1(O)c1ccc(-c2ccnc3[nH]cc(F)c23)cc1C(F)(F)F"
censoring_sign = "="
result_number = 11.1

[[record]]
compound = "C[C@@H]1CN(C)C[C@H](C)[C@@]1(O)c1ccc(-c2ccnc3[nH]ccc23)cc1"
censoring_sign = "="
result_number = 28

[[record]]
compound = "Cc1cc(-c2ccnc3[nH]cc(F)c23)cc(F)c1[C@@]1(O)[C@H](C)CN(C(=O)[C@@H]2C[C@@H](F)CN2)C[C@@H]1C"
censoring_sign = "="
result_number = 13

[[record]]
compound = "Cc1cc(-c2ccnc3[nH]cc(F)c23)cc(F)c1[C@@]1(O)[C@H](C)CN(C(C)C)C[C@@H]1C"
censoring_sign = "="
result_number = 4.1


----------
Target: LATS2 (Homo sapiens, UniProt Q9NRM7)
Sequence (Q9NRM7 1-1088): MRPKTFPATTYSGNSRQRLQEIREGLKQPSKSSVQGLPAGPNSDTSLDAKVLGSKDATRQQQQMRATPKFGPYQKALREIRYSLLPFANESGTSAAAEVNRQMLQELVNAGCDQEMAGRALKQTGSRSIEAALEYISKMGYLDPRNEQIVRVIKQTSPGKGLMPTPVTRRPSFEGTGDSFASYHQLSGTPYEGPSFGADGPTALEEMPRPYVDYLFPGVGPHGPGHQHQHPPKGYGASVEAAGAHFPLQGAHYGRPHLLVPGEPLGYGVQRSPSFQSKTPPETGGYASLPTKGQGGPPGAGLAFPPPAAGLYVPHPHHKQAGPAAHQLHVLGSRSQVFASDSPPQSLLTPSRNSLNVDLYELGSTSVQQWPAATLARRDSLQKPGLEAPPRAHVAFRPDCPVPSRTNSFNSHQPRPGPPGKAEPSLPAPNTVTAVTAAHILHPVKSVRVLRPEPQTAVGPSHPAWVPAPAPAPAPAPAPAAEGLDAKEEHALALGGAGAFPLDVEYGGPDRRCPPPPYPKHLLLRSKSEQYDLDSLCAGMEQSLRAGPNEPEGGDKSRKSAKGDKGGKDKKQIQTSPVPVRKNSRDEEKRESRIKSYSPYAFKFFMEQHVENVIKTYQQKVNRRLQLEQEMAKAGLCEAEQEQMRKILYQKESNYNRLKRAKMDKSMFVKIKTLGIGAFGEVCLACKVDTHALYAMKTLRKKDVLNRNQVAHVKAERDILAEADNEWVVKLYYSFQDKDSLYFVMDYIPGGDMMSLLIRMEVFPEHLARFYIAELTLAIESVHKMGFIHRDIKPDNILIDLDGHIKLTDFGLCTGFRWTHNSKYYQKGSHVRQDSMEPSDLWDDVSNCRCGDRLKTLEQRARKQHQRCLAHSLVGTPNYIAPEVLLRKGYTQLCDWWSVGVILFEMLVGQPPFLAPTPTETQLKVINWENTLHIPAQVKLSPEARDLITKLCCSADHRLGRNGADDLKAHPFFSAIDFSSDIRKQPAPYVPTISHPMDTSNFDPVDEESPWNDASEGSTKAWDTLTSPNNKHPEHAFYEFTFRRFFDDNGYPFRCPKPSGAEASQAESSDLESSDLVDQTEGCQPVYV
Test: RBC HotSpot kinase assay (33P-ATP, P81 filter-binding), LATS2
Assay type: biochemical
Conditions: Table 28, biochemical kinase assay; read-out: LATS2 IC50
pIC50: −log10 of the molar value.
Consider the following partition of reported pIC50 into named classes: small value (below 7), mid value (7 to below 8), large value (8 or more)

[[record]]
mol = "C[C@@H]1CN(C2CCC2)C[C@H](C)[C@@]1(O)c1c(F)cc(-c2ccnc3[nH]cc(F)c23)cc1F"
system = "LATS2 (Homo sapiens, UniProt Q9NRM7)"
group_label = "large value"

[[record]]
mol = "Fc1c[nH]c2nccc(-c3ccc(C4(c5nnco5)CCNCC4)cc3)c12"
system = "LATS2 (Homo sapiens, UniProt Q9NRM7)"
group_label = "mid value"

[[record]]
mol = "NCc1ccc(-c2cc(Cl)nc3[nH]ccc23)cc1"
system = "LATS2 (Homo sapiens, UniProt Q9NRM7)"
group_label = "small value"

[[record]]
mol = "Cc1cc(-c2ccnc3[nH]cc(F)c23)cc(F)c1[C@@]1(O)[C@H](C)CN(C2CCS(=O)(=O)CC2)C[C@@H]1C"
system = "LATS2 (Homo sapiens, UniProt Q9NRM7)"
group_label = "large value"

[[record]]
mol = "CN1CCC(O)(c2ccc(-c3ccnc4[nH]ccc34)cc2)CC1"
system = "LATS2 (Homo sapiens, UniProt Q9NRM7)"
group_label = "large value"

[[record]]
mol = "Cc1cc(-c2ccnc3[nH]cc(-c4cccnc4)c23)cc(F)c1[C@@]1(O)[C@H](C)CN(C(=O)CN)C[C@@H]1C"
system = "LATS2 (Homo sapiens, UniProt Q9NRM7)"
group_label = "large value"

